Examples of binders with documented pIC50 Category (FACS) follow.
target: human fibroblast activation protein (FAP) on WI-38 fibroblasts (human) (UniProt Q12884); experiment: competitive FACS, WI-38 cells, Cy5-labeled peptide as competitor
Numbered stars: 1 amine (or outer) side, 2 acyl side, 3 side chain; on linkers, the order of the positions; unused ones are H or OH. Bridge positions count the residues as written; N and C are the ends. Square brackets hold non-standard residues; d marks the D form. * marks the point of attachment. N4Ac = 6-Carboxy-1,4,8,11-tetraazaundecane, an N4-chelator, NCCNCC(CNCCN)C(=O)*; γGlu = O=C(O)[C@H](CCC(=O)[*:2])N[*:1]; mXylylene = c1cc(C[*:1])cc(C[*:2])c1; Nle = CCCC[C@H](N)C(=O)O; Nphe = O=C(O)CNCc1ccccc1; Hexanoyl = CCCCCC(=O)*; Nleu = CC(C)CNCC(=O)O
Parameter: pIC50 Category (FACS)

INSERT INTO results (binder, result) VALUES
  ('Hexanoyl-C[Nleu]PTQFC-NH2 (linker 1-7 via mXylylene; SMILES CCCCCC(=O)N[C@H]1CSCc2cccc(c2)CSC[C@@H](C(N)=O)NC(=O)[C@H](Cc2ccccc2)NC(=O)[C@H](CCC(N)=O)NC(=O)[C@H]([C@@H](C)O)NC(=O)[C@@H]2CCCN2C(=O)CN(CC(C)C)C1=O) [Hex-[Cys(3MeBn)-Nleu-Pro-Thr-Gln-Phe-Cys]-NH2]', '< 6 pIC50'),
  ('Hexanoyl-C[Nphe]PTQFC-NH2 (linker 1-7 via mXylylene; SMILES CCCCCC(=O)N[C@H]1CSCc2cccc(c2)CSC[C@@H](C(N)=O)NC(=O)[C@H](Cc2ccccc2)NC(=O)[C@H](CCC(N)=O)NC(=O)[C@H]([C@@H](C)O)NC(=O)[C@@H]2CCCN2C(=O)CN(Cc2ccccc2)C1=O) [Hex-[Cys(3MeBn)-Nphe-Pro-Thr-Gln-Phe-Cys]-NH2]', '< 6 pIC50'),
  ('N4Ac-[γGlu][Nle]CPPTEFC-OH (linker 3-9 via mXylylene; SMILES CCCC[C@H](NC(=O)CC[C@H](NC(=O)C(CNCCN)CNCCN)C(=O)O)C(=O)N[C@H]1CSCc2cccc(c2)CSC[C@@H](C(=O)O)NC(=O)[C@H](Cc2ccccc2)NC(=O)[C@H](CCC(=O)O)NC(=O)[C@H]([C@@H](C)O)NC(=O)[C@@H]2CCCN2C(=O)[C@@H]2CCCN2C1=O) [N4Ac-gGlu-Nle-[Cys-(3MeBn)-Pro-Pro-Thr-Glu-Phe-Cys]-OH]', '< 6 pIC50');
